test system: MS2 coat protein; test: apparent KD of MS2 coat protein; designed switch direction (-1 OFF switch, 1 ON switch): -1; higher = weaker reporter binding; conditions: input ligand: none
Exercise: state measured apparent KD of MS2 coat protein for each of the sequences provided.
Give bare numbers, in µM.

1) GGUCAGACGGUAGGAUAUCCAUAUCGAGUGACCCUUUCAUAACAUGAGGAUCACCCAUGUCGGUGGGAGAAGGGCCGUACGGCG [salish99_ExNG02_R04_001] (Eterna round: R96, puzzle: Exclusion NG 2) | 0.0632

Entry ACAAGCUUGUAAUGAUUGAACAUGAGGAUCACCCAUGUAAAUGGAAGAACCAAUUGGAUAAGAUAAACUCGUCUUAU [JR_STOV1_Sub004] (Eterna round: R97, puzzle: Sensor, turn-off variant 1) , tested on MS2 coat protein, has a reported apparent KD of MS2 coat protein of 0.114

====

system: MS2 coat protein; experiment: apparent KD of MS2 coat protein; designed switch direction (-1 OFF switch, 1 ON switch): -1; higher = weaker reporter binding; conditions: Eterna round: R95; input ligand: microRNA oligo, concentration not stated
Readout Kind: apparent KD of MS2 coat protein

Record apparent KD of MS2 coat protein for all entries; do not skip any.
1. AAUAACAGAGGAUAUACUAUUUUAUGUAUUUAUUAUUUUGAACAUGAGGAUCACCCAUGUAGAAGGCUGAAUGA [JMF 62] (puzzle: Exclusion 2)
2. AAAUGCAAGUAAAGAUUCUACAUGAGGAUCACCCAUGUGCUCGUCUUAUAAAGUACUAUCACGAAAGUGAUAGUACA [Sensor 3, v1 - 35] (puzzle: Sensor v3, turn-off variant 1)

1: 24.4 nM; 2: 100 nM

// for each sequence in input: emit apparent KD of MS2 coat protein
1. AACCGUGCGGAGGAUAUUGAUAUCCCAGUCUAUCAAGAAGGCUGCACAUGAGGAUCACCCAUGUGAUCCGUGCU [Riri] (puzzle: Exclusion 6)
2. ACAACAAGCUUUUUGUUCGUAGAACAUGAUGCUCUAGUCACAUGAGGAUCACCCAUGUCAACCAGAUAGAUAGUUGA [JR_SV3TOV2_Sub063] (puzzle: Sensor v3, turn-off variant 2)
3. CUUCGACAUGAGGAUCACCCAUGUCAGGAUAUUGUGUAUCGGGUGUUGGACGGAUAGGCAAGAAGGGAUGUGUG [LRO-Excl1-05] (puzzle: Exclusion 1)

1. 23.6 nM
2. 143 nM
3. 27.8 nM

====

tested on: MS2 coat protein; assay: apparent KD of MS2 coat protein; designed switch direction (-1 OFF switch, 1 ON switch): 1; higher = weaker reporter binding; conditions: input ligand: FMN 200 uM
Assign 1 (yes) whenever apparent KD of MS2 coat protein does not fall below 200 nM; assign 0 (no) whenever it does.

These solved cases illustrate the format of a correct answer.
1. UUGAUUAGAAAUUAACAUGAGGAUCACCCAUGUAUUGGAUCAGAGGAUAUGCAUGUUUGAUAGUAGCAGAAGGCUGAUGGUGGA [JR_SSNG3_Sub027] (Eterna round: R96, puzzle: Same State NG 3) | 0 (no)
2. ACAUGAGACUUAGGAUAUGUUGUACCUACAUGUGACAUGAGGAUCACCCAUGUGGUAAGUAUGAGGCAGAAGGAAGAGAUAUGU [Equivalence 39 - Jieux - Same State NG 2] (Eterna round: R96, puzzle: Same State NG 2) | 0 (no)
3. AUAUGAGGAGCAGGAUAUGCGAAGAAGAAAGAAGUAGAAGGGCUCAUGGGACGACAUGAGGAUCACCCAUGUACUACCCGAUGA [AK SSNG1-V2-8] (Eterna round: R96, puzzle: Same State NG 1) | 0 (no)
4. CUGAAAUGUCAAGGAUAUCACGUCGAUUAGACGUGAGAAGGUGAUCUGCACAUGAGGAUCACCCAUGUGUUACAUGGAAUUCAG [Brourd's SSNG1/1-A2 mod 13] (Eterna round: R96, puzzle: Same State NG 1) | 0 (no)
5. GUGGUCAGACAUGAGGAUCACCCAUGUGGAAUAAAUAAGGACUAGGAUAUCGAAUAUAGGAUAUACGAGAAGGAGUGGUUGGUG (Eterna round: R96, puzzle: Same State NG 3) | 0 (no)

Threshold query (apparent KD of MS2 coat protein >= 200 nM) on GCGAGCGUACUUGCAACAUGAGGAUCACCCAUGUUAACUGGACAGGAUAUGGUACCGUUUCGGUACCAGAAGGGUUUUUCAUGG [JL SSNG3 3.64] (Eterna round: R96, puzzle: Same State NG 3) 0 (no)

====

tested on: MS2 coat protein; test: apparent KD of MS2 coat protein; designed switch direction (-1 OFF switch, 1 ON switch): 1; higher = weaker reporter binding; details: Eterna round: R95; input ligand: none
Parameter threshold = 100 nM. Response is Fulfilled when apparent KD of MS2 coat protein meets or exceeds it, else Not fulfilled.

Here's what some known entries look like.
1. UGGAUCUAGGCUUGCCUGGGUCCUUGUUGACAUGAGGAUCACCCAUGUGUUUUUUUUUUGCUUUUUGUUUGUCAACA [JL A Humble Attempt mod 1] (puzzle: Sensor for hsa-mir-208a) | Not fulfilled
2. GGUCCAGCCUGAGCUGGACAAAAGCAUGUACAUGAGGAUCACCCAUGUCAUGUGCAAGCUUUUUGCUCGUCUUAAAA [JL mod - D87 - 4] (puzzle: Sensor for hsa-mir-208a) | Not fulfilled
3. AUAAAACAUGAGGAUCACCCAUGUCAACAAAGUCGAGGAUAUGGGCAAAUAAAAUAAGAACCAGAAGGCUAAUAAU [salish99_ss1_r3_052] (puzzle: Same State 1) | Fulfilled
4. UUUAGUUGCGGGCAGGAUAUGUAUUAAAAUACAUGAGGAUCACCCAUGUGAGGUCAUAAAGACCUGCAGAAGGGCCAAUCGCGAC [Laonerce - 17] (puzzle: Same State 2) | Not fulfilled
5. AAAGAACAUGAGGAUCACCCAUGUGGAAGAGGCACAGGAUAUCACCUCGCACGUGCGAGGUGAGAAGGGUGAUGGU [Zalecema] (puzzle: Same State 1) | Fulfilled
6. GUGGCCCAGGCACAGGAUAUGUUUCUCGUAACAUGAGGAUCACCCAUGUGCCUAUGAGAUUUAAUGCAGAAGGGUGCACGCCACU [Mat - Same State 2 - Mod of UCT - D79] (puzzle: Same State 2) | Fulfilled
7. AACGUUGGCGAGCAGGAUAUCCGCUCAUUAACAUGAGGAUCACCCAUGUUCUGCAAGAUGUGCUAGGAGAAGGGCUGGUCGACAU [Edatar] (puzzle: Same State 2) | Not fulfilled
8. AUCCUACAUGAGGAUCACCCAUGUGACGCCUCAAUAGGAUAUGCGUGUGCCUUGGCGCAUGCAGAAGGAUUGGAGC [JL Aveso mod 4] (puzzle: Same State 1) | Fulfilled
9. GCCACACAUGAGGAUCACCCAUGUAAUUACAUGGGAGGAUAUCAGUGCUCGAAAGAGCACUGAGAAGGCCCGUGGC [SS1 - Omei A v4] (puzzle: Same State 1) | Fulfilled
10. CAGCACUAUCGAGAGGAUAUGCGGUGAUGGACAUGAGGAUCACCCAUGUUAGCGAUAGCAUCACGGCAGAAGGCUCUGCUGCUGC [Soteed Omei mod 37] (puzzle: Same State 2) | Not fulfilled

I'd appreciate it if you could say whether UGCAUACAUGAGGAUCACCCAUGUCAACUUAGUCGAGGAUAUGGGCAGCCGUGAGGCGAACCAGAAGGCGAAUUGU [JL-ss1-3.02 ViennaUCT mod] (puzzle: Same State 1) has apparent KD of MS2 coat protein at least equal to 100 nM. Not fulfilled

Confirm if apparent KD of MS2 coat protein reported for the sequence GUUAAACAUGAGGAUCACCCAUGUAAUAAUAUGGGAGGAUAUCAGAAAUUAUUUAUUAAAUGAGAAGGCCUAAUUG [Mat - Same State 1 - Mod of Eli - D81] (puzzle: Same State 1) is 100 nM or above. Fulfilled

Dear colleague, could you confirm whether AUAAGGCAAGCUUUUUUCUCGUAGUGUAAACAUGAGGAUCACCCAUGUGCCCGCUCUGGAUCUUUGGAUCGCAGAAA [Lavegeaus] (puzzle: Sensor for hsa-mir-208a) has apparent KD of MS2 coat protein at or above 100 nM? Not fulfilled

Determine whether this sequence has apparent KD of MS2 coat protein no lower than 100 nM: UCUUGGUUUUUGCUCGUUUUUUGUGUUGAACAUGAGGAUCACCCAUGUAUUGUACGGUCCAGUUUGGUAAUGGUCCG [JMF 35] (puzzle: Sensor for hsa-mir-208a) Not fulfilled

Item GGAGGACAUGAGGAUCACCCAUGUAGAUGGGCGCUAGGAUAUGCGAGAGGGUAGAGAGAAGCAGAAGGAGUGGAAA [JR_SS1_Sub040] (puzzle: Same State 1) with apparent KD of MS2 coat protein of 100 nM or above? Fulfilled

Given the entry AGCUAUCGCGUACGAUAGCUGAAGCAUGUACAUGAGGAUCACCCAUGUCAUGUACAGGCUUUUUGCUCGUCUUAUUG [JL-shm-2.27 JL mod] (puzzle: Sensor for hsa-mir-208a) , answer whether its apparent KD of MS2 coat protein meets or surpasses 100 nM. Fulfilled

# check: apparent KD of MS2 coat protein of CAGCACUGUCGAGAGGAUAUGCGGUGGUAGACAUGAGGAUCACCCAUGUUAGCGACAGCAUCACGGCAGAAGGCUCUGCUGCUGC [Soteed Omei mod 41] (puzzle: Same State 2) is greater than or equal to 100 nM Fulfilled

State whether the measured apparent KD of MS2 coat protein reaches 100 nM, counting equality as reaching it, for UAGUACAAGCUUUUUGCCCGUCUUAUUUAACAUGAGGAUCACCCAUGUAAGGUGAAAGUUAGAGAGUGGAGGUUGAA [JR_SHM208A_Sub049] (puzzle: Sensor for hsa-mir-208a) Fulfilled

Please indicate if the recorded apparent KD of MS2 coat protein for UCUUGGUUUUUGCUCGUUUUUUGUGUUGAACAUGAGGAUCACCCAUGUAUUGUACGGUCCGAUUUAAUAAUGGUCCG [JMF 22] (puzzle: Sensor for hsa-mir-208a) meets or exceeds 100 nM. Not fulfilled

Textbook exercise: given the entry UCUUGGUUUUUGCUCGUUUUUUGUGUUGAACAUGAGGAUCACCCAUGUAUUGUACGGUCCGGUUUAAUAGUGGUCCA [JMF 43] (puzzle: Sensor for hsa-mir-208a) , state whether its apparent KD of MS2 coat protein is greater than or equal to 100 nM. Fulfilled

Threshold query (apparent KD of MS2 coat protein >= 100 nM) on UAGUACAUGCUUUUUGUCCGUCUUAGAUAACAUGAGGAUCACCCAUGUAAGGUGAAAGUUAUAUAGUUUAGGAAUAU [JR_SHM208A_Sub057] (puzzle: Sensor for hsa-mir-208a) Fulfilled
